Tested on: K4 kissing-loop RNA reporter;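 further: bound reporter read as fluorescence of individual clusters on recovered sequencing chips by microscopy, with normalized cluster intensities fitted with a binding model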
Test: apparent KD of K4 kissing-loop reporter; higher = weaker reporter binding
Details: Eterna round: R107; input ligand: arginine 13.2 mM
Label 1 (yes) for high-side apparent KD of K4 kissing-loop reporter (at or above 200 nM) and 0 (no) for low-side apparent KD of K4 kissing-loop reporter (below it).

query: Could you verify whether the entry UGUGAGCUGUCGACAAAAGUCGACUAAAACUAGGAUAUGACGAAAGUCAGAAGGAGUCAAUAAUGGAGUGAUGUUCCUGCUCACU [FmnA 9 U31+A55] shows apparent KD of K4 kissing-loop reporter of no less than 200 nM?
result: 1 (yes)

query: Also check GGUAGCAUGGCGGCCGCCACUUCAAAUGGAGUGAUGUUCCAAGGCAUCGCGAAAGCGAUGCCAGGAAGGACCGGGCCAUGCUACC
result: 1 (yes)

query: Also check CGGCUCUAUCCUAGUAUUAAGAGGGAGUUGCGAGGACCGGUACGGCCGCCACUCGAAGUAGUUUGGCCAGUGAUGUUGGUCUUAC [Qubeatonza]
result: 1 (yes)

query: Also check UGAUACCAGACUGAUACCAGCUAGUGAUGUUAGCUGAAAUCAGGGUCAAAGACCCUGUCUAGCCCUUGGCAGCAGUCUGGUAUCU [TheoBX 9 #SwitchBubble #StaticStem]
result: 0 (no)

query: Also check CAGCAUCAGGUUCAAACUGCAUGUACUGAUACCAGUCUUAAGAUCGACCCUUGGCAGCAGCUCCCGAGUGAUGUUCGUAGCGAGC [theeternabot_exclusion_KL_Theo_A_41]
result: 1 (yes)

query: Also check ACGGCGCUGGAACCAGUAAUGGGAAGAAUGCGAGGACCGGUACGGCCGCCACUCGCUUCCAGUGAUGUUGGAAGUGAGCCAACAA [Geerzaedre]
result: 1 (yes)

query: Also check UCGCAUUAACCGGAUACCAGCUUAGUGGGAUCUUCAAUCCGACAGAAAGUGAUGUUUUCUAGCCCUUGGCAGCCGAGAUUAUCAC [theeternabot_sameState_KL_Theo_B_50]
result: 1 (yes)

query: Also check UGAUAGGACAGAAGGAGCGGAAGUGAUGUUUCCAAAAGAUAUGAUCGACAAAGUCGAUUUUUCCAGGUAGGUCGCUGUCCUAUCU [KL-XARG-B19]
result: 0 (no)

query: Also check GUGGCGGGCCAAGGAUAUAUUUUGGAGUGAUGUUGUUCAUUUAUUUGAGCUAGUGAUGUUGGUCGAAUAGAAGGUGGCCCGCCAC [whbob_Ex_FMNB__2th220]
result: 0 (no)

query: Also check UCGGCGGAGUGAUGUUCCUAUGUCCAAGAUACCAGUCUAUGAACGGACCCUUGGCAGCUUCCAUUAGGUUACUAUUUAGACUCAU [theeternabot_exclusion_KL_Theo_A_10]
result: 1 (yes)

query: Also check AGUGUUAGGUUAGAUACCAGCCGUCUGUGGAUAAUCCACAGACCGCCAGUGAUGUUGGCAGGCCCUUGGCAGCUAACAGGACAGA [Riedingeus]
result: 1 (yes)

query: Also check AAGUGGGAACGGCCCAAUAAAGUGUUUGUCAAGGAUAUUAUUCACAUAAGAAGGUGACAGACCACCUCCGGAGUGAUGUUUUGGA [theeternabot_sameState_KL_FMN_A_42]
result: 1 (yes)
